System: genotype 1b transient replicon
experiment_summary: 1b transient replicon (luciferase reporter)
Assay type: cell-based, HCV
protocol_conditions: Hepatitis C virus, HuH-7 cells, 5% FBS
pEC50: −log10 of the molar value.
experimental_readout: pEC50

Consider the worked cases shown below.
>  <compound_string>
Cc1cc(C(=O)N[C@H]2CCCCC/C=C\[C@@H]3C[C@@]3(C(=O)NS(=O)(=O)C3(C)CC3)NC(=O)[C@@H]3C[C@@H](Oc4nc5cc(OC(F)(F)F)ccc5c5ccccc45)CN3C2=O)no1

>  <pEC50>
9.30 to 10.00

$$$$
>  <compound_string>
O=C(N[C@H]1CCCCC/C=C\[C@@H]2C[C@@]2(C(=O)NS(=O)(=O)C2CC2)NC(=O)[C@@H]2C[C@@H](Oc3nc4ccccc4c4cc(F)ccc34)CN2C1=O)c1cncs1

>  <pEC50>
9.30 to 10.00

$$$$
>  <compound_string>
Cc1cc(C(=O)N[C@H]2CCCCC/C=C\[C@@H]3C[C@@]3(C(=O)NS(=O)(=O)C3CC3)NC(=O)[C@@H]3C[C@@H](Oc4nc5cc(OC(F)(F)F)ccc5c5ccccc45)CN3C2=O)no1

>  <pEC50>
> 10.00

$$$$
>  <compound_string>
Cn1ccc(C(=O)N[C@H]2CCCCC/C=C\[C@@H]3C[C@@]3(C(=O)NS(=O)(=O)C3CC3)NC(=O)[C@@H]3C[C@@H](Oc4nc5cccc(F)c5c5ccccc45)CN3C2=O)n1

>  <pEC50>
9.30 to 10.00

$$$$

Next up:
Lookup: So what's the measured pEC50 for this one? "Cc1ccc(C(=O)N[C@H]2CCCCC/C=C\[C@@H]3C[C@@]3(C(=O)NS(=O)(=O)C3(C)CC3)NC(=O)[C@@H]3C[C@@H](Oc4nc5cc(F)ccc5c5ccccc45)CN3C2=O)o1"
Found: 9.30 to 10.00

###

System: genotype 1a replicon (1a-H77)
experiment_summary: 1a stable replicon (luciferase reporter)
Type: cell-based, HCV
protocol_conditions: Hepatitis C virus, Huh-7, luciferase reporter, HuH-7 cells, 5% FBS
Please provide measured EC50 for the entries that follow.

>  <compound_string>
COc1ccc2c(c1)c(O[C@@H]1C[C@H]3C(=O)N[C@]4(C(=O)NS(=O)(=O)C5CC5)C[C@H]4/C=C\CCCCC[C@H](NC(=O)c4cc(C)on4)C(=O)N3C1)nc1cc(F)ccc12

>  <EC50>
0.5 to 1 nM

$$$$

Please give EC50, item by item, for the list that follows.
1. Cn1ccc(C(=O)N[C@H]2CCCCC/C=C\[C@@H]3C[C@@]3(C(=O)NS(=O)(=O)C3(C)CC3)NC(=O)[C@@H]3C[C@@H](Oc4nc5cc(OC(F)(F)F)ccc5c5ccccc45)CN3C2=O)n1
2. Cn1ccc(C(=O)N[C@H]2CCCCC/C=C\[C@@H]3C[C@@]3(C(=O)NS(=O)(=O)C3CC3)NC(=O)[C@@H]3C[C@@H](Oc4nc5cc(F)ccc5c5ccccc45)CN3C2=O)n1

Found:
1: 0.1 to 0.5 nM; 2: 0.1 to 0.5 nM

Batch request: EC50 per item, same order as input.
1. Cc1cc(C(=O)N[C@H]2CCCCC/C=C\[C@@H]3C[C@@]3(C(=O)NS(=O)(=O)C3CC3)NC(=O)[C@@H]3C[C@@H](Oc4nc5cccc(F)c5c5ccccc45)CN3C2=O)no1
2. O=C(N[C@H]1CCCCC/C=C\[C@@H]2C[C@@]2(C(=O)NS(=O)(=O)C2CC2)NC(=O)[C@@H]2C[C@@H](Oc3nc4ccccc4c4cc(F)ccc34)CN2C1=O)c1cncs1

Found:
1: 0.5 to 1 nM; 2: 0.5 to 1 nM

###

Tested on: genotype 3a NS3 gene in transient replicon
experiment_summary: 3a transient replicon (luciferase reporter)
Assay type: cell-based, HCV
protocol_conditions: Hepatitis C virus, Huh-7, read-out: 3a transient replicon (nM)
experimental_readout: EC50

Go through the list and state EC50 for each entry.
1. CC1(S(=O)(=O)NC(=O)[C@@]23C[C@H]2/C=C\CCCCC[C@H](NC(=O)c2ccon2)C(=O)N2C[C@H](Oc4nc5cc(F)ccc5c5cc(OC(F)(F)F)ccc45)C[C@H]2C(=O)N3)CC1
2. Cc1ccc(C(=O)N[C@H]2CCCCC/C=C\[C@@H]3C[C@@]3(C(=O)NS(=O)(=O)C3(C)CC3)NC(=O)[C@@H]3C[C@@H](Oc4nc5ccccc5c5cc(F)ccc45)CN3C2=O)s1

Found:
["> 1 nM", "> 1 nM"]

###

Tested on: genotype 3a NS3 gene in transient replicon
experiment_summary: 3a transient replicon (luciferase reporter)
Assay type: cell-based, HCV
protocol_conditions: Hepatitis C virus, Huh-7, read-out: 3a transient replicon (nM)
Task for the reader: assign each of the following molecules its reported EC50.

>  <compound_string>
CC1(S(=O)(=O)NC(=O)[C@@]23C[C@H]2/C=C\CCCCC[C@H](NC(=O)c2ccon2)C(=O)N2C[C@H](Oc4nc5cc(F)ccc5c5ccccc45)C[C@H]2C(=O)N3)CC1

>  <EC50>
0.5 to 1 nM

$$$$
>  <compound_string>
COc1ccc2c(c1)c(O[C@@H]1C[C@H]3C(=O)N[C@]4(C(=O)NS(=O)(=O)C5CC5)C[C@H]4/C=C\CCCCC[C@H](NC(=O)c4cc(C)on4)C(=O)N3C1)nc1ccccc12

>  <EC50>
> 1 nM

$$$$
>  <compound_string>
Cn1ccc(C(=O)N[C@H]2CCCCC/C=C\[C@@H]3C[C@@]3(C(=O)NS(=O)(=O)C3(C)CC3)NC(=O)[C@@H]3C[C@@H](Oc4nc5cc(OC(F)(F)F)ccc5c5ccc(F)cc45)CN3C2=O)n1

>  <EC50>
0.1 to 0.5 nM

$$$$
>  <compound_string>
CC1(S(=O)(=O)NC(=O)[C@@]23C[C@H]2/C=C\CCCCC[C@H](NC(=O)c2ccn(C(F)F)n2)C(=O)N2C[C@H](Oc4nc5cc(F)ccc5c5cc(OC(F)(F)F)ccc45)C[C@H]2C(=O)N3)CC1

>  <EC50>
> 1 nM

$$$$

Now consider a different molecule.
Lookup: genotype 3a NS3 gene in transient replicon / EC50 / "Cc1cc(C(=O)N[C@H]2CCCCC/C=C\[C@@H]3C[C@@]3(C(=O)NS(=O)(=O)C3CC3)NC(=O)[C@@H]3C[C@@H](Oc4nc5ccccc5c5ccc(F)cc45)CN3C2=O)no1" : value?
Found: > 1 nM

###

Tested on: genotype 1b transient replicon
experiment_summary: 1b transient replicon (luciferase reporter)
Type: cell-based, HCV
protocol_conditions: Hepatitis C virus, HuH-7 cells, 5% FBS
For each record, write down the corresponding EC50.

>  <compound_string>
Cc1cc(C(=O)N[C@H]2CCCCC/C=C\[C@@H]3C[C@@]3(C(=O)NS(=O)(=O)C3CC3)NC(=O)[C@@H]3C[C@@H](Oc4nc5ccccc5c5cccc(F)c45)CN3C2=O)no1

>  <EC50>
0.1 to 0.5 nM

$$$$
>  <compound_string>
Cc1cc(C(=O)N[C@H]2CCCCC/C=C\[C@@H]3C[C@@]3(C(=O)NS(=O)(=O)C3(C)CC3)NC(=O)[C@@H]3C[C@@H](Oc4nc5cc(F)ccc5c5cc(F)ccc45)CN3C2=O)no1

>  <EC50>
0.1 to 0.5 nM

$$$$
>  <compound_string>
CC1(S(=O)(=O)NC(=O)[C@@]23C[C@H]2/C=C\CCCCC[C@H](NC(=O)c2cscn2)C(=O)N2C[C@H](Oc4nc5ccccc5c5cc(F)ccc45)C[C@H]2C(=O)N3)CC1

>  <EC50>
0.1 to 0.5 nM

$$$$
>  <compound_string>
Cn1ccc(C(=O)N[C@H]2CCCCC/C=C\[C@@H]3C[C@@]3(C(=O)NS(=O)(=O)C3CC3)NC(=O)[C@@H]3C[C@@H](Oc4nc5cc(F)ccc5c5ccccc45)CN3C2=O)n1

>  <EC50>
0.1 to 0.5 nM

$$$$
>  <compound_string>
CC1(S(=O)(=O)NC(=O)[C@@]23C[C@H]2/C=C\CCCCC[C@H](NC(=O)c2ccn(C(F)F)n2)C(=O)N2C[C@H](Oc4nc5cc(F)ccc5c5cc(OC(F)(F)F)ccc45)C[C@H]2C(=O)N3)CC1

>  <EC50>
0.1 to 0.5 nM

$$$$
>  <compound_string>
CC1(S(=O)(=O)NC(=O)[C@@]23C[C@H]2/C=C\CCCCC[C@H](NC(=O)c2ccon2)C(=O)N2C[C@H](Oc4nc5cc(F)ccc5c5cc(F)ccc45)C[C@H]2C(=O)N3)CC1

>  <EC50>
< 0.1 nM

$$$$

Report EC50 for each item below.
1. CC1(S(=O)(=O)NC(=O)[C@@]23C[C@H]2/C=C\CCCCC[C@H](NC(=O)c2ccon2)C(=O)N2C[C@H](Oc4nc5cc(F)ccc5c5cc(OC(F)(F)F)ccc45)C[C@H]2C(=O)N3)CC1
2. CC1(S(=O)(=O)NC(=O)[C@@]23C[C@H]2/C=C\CCCCC[C@H](NC(=O)[C@H](O)C(F)(F)F)C(=O)N2C[C@H](Oc4nc5cc(OC(F)(F)F)ccc5c5ccccc45)C[C@H]2C(=O)N3)CC1
3. COc1ccc2c(c1)nc(O[C@@H]1C[C@H]3C(=O)N[C@]4(C(=O)NS(=O)(=O)C5(C)CC5)C[C@H]4/C=C\CCCCC[C@H](NC(=O)c4cc(C)on4)C(=O)N3C1)c1ccccc12
4. Cn1ccc(C(=O)N[C@H]2CCCCC/C=C\[C@@H]3C[C@@]3(C(=O)NS(=O)(=O)C3(C)CC3)NC(=O)[C@@H]3C[C@@H](Oc4nc5cc(F)ccc5c5cc(F)ccc45)CN3C2=O)n1

Found:
1: 0.1 to 0.5 nM; 2: < 0.1 nM; 3: 0.1 to 0.5 nM; 4: 0.1 to 0.5 nM
